Structures can show the parent of a compound that is named as a salt.
Measurement label: melting point

CNCCc1ccc2[nH]c(C)c(S(=O)(=O)c3ccccc3)c2c1 | 213 to 215 °C

Batch: melting point for all items listed.
1. CC(NCCc1cccc2[nH]cc(S(=O)(=O)c3ccccc3)c12)C(C)(C)C (stereo not drawn) (as salt: hydrochloride)
2. O=S(=O)(c1ccccc1)c1c[nH]c2c(CCN3CCCC3)cccc12 (as salt: hydrochloride)
3. O=S(=O)(c1ccccc1)c1c[nH]c2cccc(CCN3CCOCC3)c12 (as salt: hydrochloride)
4. CCNCCc1cccc2[nH]cc(S(=O)(=O)c3ccccc3)c12 (as salt: hydrochloride)

275 °C
250 to 252 °C (dec.)
164 to 165 °C
225 to 228 °C

Below are 8 compounds. Give each one its melting point.
1. CC(C)CNCCc1cccc2[nH]cc(S(=O)(=O)c3ccccc3)c12 (as salt: hydrochloride)
2. O=S(=O)(c1ccccc1)c1c[nH]c2ccc(CCN3CCCCC3)cc12 (as salt: hydrochloride)
3. NCCc1cccc2[nH]cc(S(=O)(=O)c3ccccc3)c12 (as salt: hydrochloride)
4. CCc1[nH]c2ccc(CCNC)cc2c1S(=O)(=O)c1ccccc1
5. CCCNCCc1ccc2[nH]cc(S(=O)(=O)c3ccccc3)c2c1 (as salt: hydrochloride)
6. CCN(C)CCc1cccc2c(S(=O)(=O)c3ccccc3)c[nH]c12 (as salt: hydrochloride)
7. CNCCc1ccc2[nH]cc(S(=O)(=O)c3ccccc3)c2c1
8. CC(C)NCCc1ccc2[nH]cc(S(=O)(=O)c3ccccc3)c2c1 (as salt: hydrochloride)

1: 220 °C; 2: 272 °C; 3: 130 to 134 °C; 4: 179 to 182 °C; 5: 189 to 192 °C; 6: 215 to 218 °C (dec.); 7: 151 to 154 °C; 8: 263 °C

Would you mind giving melting point for every compound in the list below?
1. O=S(=O)(c1ccccc1)c1c[nH]c2ccc(CCN3CCNCC3)cc12 (as salt: hydrochloride)
2. CN(CCc1cccc2[nH]cc(S(=O)(=O)c3ccccc3)c12)C1CCCCC1 (as salt: hydrochloride)

1. 220 °C
2. 132 to 140 °C
